Biological target: GSPT1 (Homo sapiens, UniProt P15170+Q96SW2)
Sequence (P15170 whole entry): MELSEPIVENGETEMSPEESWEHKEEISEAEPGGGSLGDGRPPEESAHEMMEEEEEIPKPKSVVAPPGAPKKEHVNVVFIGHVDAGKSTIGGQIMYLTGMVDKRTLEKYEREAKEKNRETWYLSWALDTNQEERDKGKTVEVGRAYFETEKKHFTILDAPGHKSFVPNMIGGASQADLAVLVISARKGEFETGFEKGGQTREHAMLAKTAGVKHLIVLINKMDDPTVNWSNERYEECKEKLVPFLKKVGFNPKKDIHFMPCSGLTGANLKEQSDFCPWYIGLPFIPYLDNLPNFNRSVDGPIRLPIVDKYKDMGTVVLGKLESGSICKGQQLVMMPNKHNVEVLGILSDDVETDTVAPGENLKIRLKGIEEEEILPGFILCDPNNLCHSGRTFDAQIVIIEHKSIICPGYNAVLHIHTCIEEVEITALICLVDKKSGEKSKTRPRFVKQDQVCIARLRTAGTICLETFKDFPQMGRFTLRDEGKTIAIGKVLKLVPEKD
Sequence (Q96SW2 whole entry): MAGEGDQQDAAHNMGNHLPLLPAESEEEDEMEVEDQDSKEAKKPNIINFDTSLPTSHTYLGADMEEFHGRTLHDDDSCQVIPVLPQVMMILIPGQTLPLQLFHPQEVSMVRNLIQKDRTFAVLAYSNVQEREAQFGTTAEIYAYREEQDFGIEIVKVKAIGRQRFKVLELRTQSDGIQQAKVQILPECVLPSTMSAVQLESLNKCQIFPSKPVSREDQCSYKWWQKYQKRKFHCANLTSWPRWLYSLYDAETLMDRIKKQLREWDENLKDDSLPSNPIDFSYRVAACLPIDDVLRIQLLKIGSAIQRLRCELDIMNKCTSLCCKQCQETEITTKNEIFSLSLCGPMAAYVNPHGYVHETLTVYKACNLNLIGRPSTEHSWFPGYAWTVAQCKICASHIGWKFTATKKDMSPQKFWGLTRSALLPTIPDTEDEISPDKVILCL
Sequence (Q16531 whole entry partner): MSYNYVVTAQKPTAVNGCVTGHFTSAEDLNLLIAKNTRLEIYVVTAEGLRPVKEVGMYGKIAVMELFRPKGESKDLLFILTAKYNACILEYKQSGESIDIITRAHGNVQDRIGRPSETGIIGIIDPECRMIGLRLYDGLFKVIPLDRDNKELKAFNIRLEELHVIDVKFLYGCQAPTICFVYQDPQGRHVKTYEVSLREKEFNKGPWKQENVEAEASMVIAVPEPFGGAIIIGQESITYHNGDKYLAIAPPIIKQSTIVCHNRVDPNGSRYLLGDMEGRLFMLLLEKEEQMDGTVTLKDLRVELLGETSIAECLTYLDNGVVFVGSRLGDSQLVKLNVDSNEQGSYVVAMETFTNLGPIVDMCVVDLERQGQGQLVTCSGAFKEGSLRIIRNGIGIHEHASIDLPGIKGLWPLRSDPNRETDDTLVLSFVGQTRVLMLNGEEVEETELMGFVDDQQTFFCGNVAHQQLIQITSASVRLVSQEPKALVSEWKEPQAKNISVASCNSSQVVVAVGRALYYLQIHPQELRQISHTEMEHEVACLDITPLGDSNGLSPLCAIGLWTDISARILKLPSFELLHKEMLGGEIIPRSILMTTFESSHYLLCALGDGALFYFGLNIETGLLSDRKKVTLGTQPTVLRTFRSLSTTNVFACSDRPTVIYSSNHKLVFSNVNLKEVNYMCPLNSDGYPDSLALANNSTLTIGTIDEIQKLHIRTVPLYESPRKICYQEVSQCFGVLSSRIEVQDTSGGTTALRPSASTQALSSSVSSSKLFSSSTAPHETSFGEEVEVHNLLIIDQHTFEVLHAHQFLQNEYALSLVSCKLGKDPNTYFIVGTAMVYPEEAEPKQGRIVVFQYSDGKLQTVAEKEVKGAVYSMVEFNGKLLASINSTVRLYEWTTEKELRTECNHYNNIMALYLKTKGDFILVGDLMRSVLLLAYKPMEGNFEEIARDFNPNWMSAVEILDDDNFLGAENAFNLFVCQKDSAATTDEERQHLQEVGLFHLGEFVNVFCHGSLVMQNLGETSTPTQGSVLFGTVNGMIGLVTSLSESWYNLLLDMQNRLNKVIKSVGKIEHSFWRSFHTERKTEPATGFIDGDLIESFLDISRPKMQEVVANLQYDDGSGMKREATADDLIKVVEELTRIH
Experiment: HiBiT degradation assay, GSPT1, Procedure A
Assay type: cell-based
Set-up: HiBit-GSPT1 KI HEK293(LgBit) Cells; host or cells: HEK293(LgBit) knock-in cells
Details: six hours incubation
Experimental: Compounds were spotted onto Cornin 384-Well, Cell Culture-Treated, Flat-Bottom, Low Flange Microplate (Fisher Scientific, Catalog #07-201-013) using a Tecan D300e digital dispenser. […] Cells were dissociated from tissue 182 cm^2 Tissue Culture Flask (CellTreat Catalog #229351) by washing the cells with PBS (Fisher Scientific Catalog #BP3994) followed by dissociation with Trypsin-EDTA (0.25%) (Thermo Scientific Catalog #25200056). […] Cell density was determined using a Denovix CellDrop BF cell counter. […]
MEASUREMENT_TYPE: DC50

{"columns": ["COMPOUND", "OBSERVED"],
 "data": [
  ["Cc1ccc(Cl)c(-c2c(-c3ccc4c(c3)CN(C3CCC(=O)NC3=O)C4=O)cnn2C)c1 (stereo not drawn)", "≥ 25 nM"],
  ["COc1ccc(-c2c(-c3ccc4c(c3)CN(C3CCC(=O)NC3=O)C4=O)ncn2C)cc1OCc1ccccc1 (stereo not drawn)", "≥ 25 nM"],
  ["Cn1ncc(-c2ccc3c(c2)CN(C2CCC(=O)NC2=O)C3=O)c1-c1ccc(O)cc1 (stereo not drawn)", "≥ 25 nM"]
]}

----------
target: CK1α (Homo sapiens, UniProt P48729+Q96SW2); construct: CSNK1A1-HiBit KI HEK293(LgBit) Cells; host or cells: HEK293(LgBit) knock-in cells; test: HiBiT degradation assay, CK1α, Procedure A; assay type: cell-based; conditions: six hours incubation
Sequence (P48729 whole entry): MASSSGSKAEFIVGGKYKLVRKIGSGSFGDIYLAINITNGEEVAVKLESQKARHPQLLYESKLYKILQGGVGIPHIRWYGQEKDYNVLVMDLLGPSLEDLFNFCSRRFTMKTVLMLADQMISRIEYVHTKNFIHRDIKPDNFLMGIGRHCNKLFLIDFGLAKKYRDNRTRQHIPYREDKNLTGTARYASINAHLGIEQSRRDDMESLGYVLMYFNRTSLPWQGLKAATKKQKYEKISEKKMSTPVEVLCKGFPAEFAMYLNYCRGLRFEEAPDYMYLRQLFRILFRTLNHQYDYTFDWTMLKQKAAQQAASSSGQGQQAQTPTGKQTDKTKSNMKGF
Sequence (Q96SW2 whole entry): as the sequence (Q96SW2 whole entry) above
Sequence (Q16531 whole entry partner): as the sequence (Q16531 whole entry partner) above
MEASUREMENT_TYPE: DC50

{"columns": ["MOLECULE", "TESTED_ON", "MEASUREMENT_TYPE", "OBSERVED"],
 "data": [
  ["Cn1cnc(-c2cc3c(s2)C(=O)N(C2CCC(=O)NC2=O)C3)c1-c1ccccc1 (stereo not drawn) [Example 16]", "CK1α (Homo sapiens, UniProt P48729+Q96SW2)", "DC50", "≥ 25 nM"],
  ["Cn1cnc(-c2ccc3c(c2)CN(C2CCC(=O)NC2=O)C3=O)c1-c1cccc(C(N)=O)c1 (stereo not drawn) [Example 248]", "CK1α (Homo sapiens, UniProt P48729+Q96SW2)", "DC50", "≥ 25 nM"],
  ["Cn1ncc(-c2ccc3c(c2)CN(C2CCC(=O)NC2=O)C3=O)c1-c1ccccc1C#N (stereo not drawn) [Example 152]", "CK1α (Homo sapiens, UniProt P48729+Q96SW2)", "DC50", "≥ 25 nM"]
]}

----------
Listed next: entries and their corresponding DC50.
molecular target: GSPT1 (Homo sapiens, UniProt P15170+Q96SW2); experiment: HiBiT degradation assay, GSPT1, Procedure A; type: cell-based; set-up: HiBit-GSPT1 KI HEK293(LgBit) Cells; host or cells: HEK293(LgBit) knock-in cells; details: six hours
MEASUREMENT_TYPE: DC50

{"columns": ["MOLECULE", "OBSERVED"],
 "data": [
  ["CC(C)n1ccc(-c2c(-c3ccc4c(c3)CN(C3CCC(=O)NC3=O)C4=O)ncn2C)n1 (centres unmarked)", "≥ 25 nM"],
  ["Cn1cnc(-c2ccc3c(c2)CN(C2CCC(=O)NC2=O)C3=O)c1-c1cncc(N)c1 (centres unmarked)", "≥ 25 nM"],
  ["Cn1cc(-c2ccc3c(c2)CN(C2CCC(=O)NC2=O)C3=O)nc1-c1cc(F)cc(Cl)c1 (centres unmarked)", "≥ 25 nM"],
  ["Cn1cc(-c2ccc3c(c2)CN(C2CCC(=O)NC2=O)C3=O)nc1-c1ccc(OC(F)F)cc1 (centres unmarked)", "< 25 nM"],
  ["Cn1cnc(-c2ccc3c(c2)CN(C2CCC(=O)NC2=O)C3=O)c1-c1ccc2scnc2c1 (centres unmarked)", "≥ 25 nM"],
  ["Cn1cc(-c2ccc3c(c2)CN(C2CCC(=O)NC2=O)C3=O)nc1C1CCC2(CC1)CC2 (centres unmarked)", "≥ 25 nM"],
  ["[2H]C([2H])([2H])n1ncc(-c2ccc3c(c2)CN(C2CCC(=O)NC2=O)C3=O)c1-c1ccc(OC(F)(F)F)cc1 (centres unmarked)", "< 25 nM"],
  ["Cc1cc(-c2c(-c3ccc4c(c3)CN(C3CCC(=O)NC3=O)C4=O)ncn2C)ccn1 (centres unmarked)", "< 25 nM"],
  ["Cn1ncc(-c2ccc3c(c2)CN(C2CCC(=O)NC2=O)C3=O)c1C1=CCCCC1 (centres unmarked)", "≥ 25 nM"],
  ["Cn1nc(-c2ccc3c(c2)CN(C2CCC(=O)NC2=O)C3=O)nc1N1CCCCCC1 (centres unmarked)", "≥ 25 nM"],
  ["COc1ccncc1-c1c(-c2ccc3c(c2)CN(C2CCC(=O)NC2=O)C3=O)cnn1C (centres unmarked)", "< 25 nM"]
]}

----------
molecular target: GSPT1 (Homo sapiens, UniProt P15170+Q96SW2); assay: HiBiT degradation assay, GSPT1, Procedure A; format: cell-based; set-up: HiBit-GSPT1 KI HEK293(LgBit) Cells; host or cells: HEK293(LgBit) knock-in cells; conditions: six hours incubation
Overview of reported DC50 across a group of compounds:

{"columns": ["COMPOUND", "DC50"],
 "data": [
  ["CN1CCN(Cc2ccc(-c3c(-c4ccc5c(c4)CN(C4CCC(=O)NC4=O)C5=O)cnn3C)cc2)CC1 (centres unmarked)", "≥ 25 nM"],
  ["Cc1c(-c2c(-c3ccc4c(c3)CN(C3CCC(=O)NC3=O)C4=O)cnn2C)cnn1C (centres unmarked)", "≥ 25 nM"],
  ["CC(C)c1ccccc1-c1c(-c2ccc3c(c2)CN(C2CCC(=O)NC2=O)C3=O)ncn1C (centres unmarked)", "≥ 25 nM"],
  ["Cc1ccc(-c2c(-c3ccc4c(c3)CN(C3CCC(=O)NC3=O)C4=O)cnn2C)cc1F (centres unmarked)", "≥ 25 nM"],
  ["Cc1ccc(C#N)cc1-c1c(-c2ccc3c(c2)CN(C2CCC(=O)NC2=O)C3=O)ncn1C (centres unmarked)", "≥ 25 nM"],
  ["O=C1CCC(N2Cc3cc(-c4conc4-c4ccccc4)ccc3C2=O)C(=O)N1 (centres unmarked)", "≥ 25 nM"],
  ["Cn1cc(-c2ccc3c(c2)CN(C2CCC(=O)NC2=O)C3=O)nc1C1CCCCC1 (centres unmarked)", "< 25 nM"],
  ["Cn1ncc(-c2ccc3c(c2)CN(C2CCC(=O)NC2=O)C3=O)c1-c1ccc(-c2ccccc2)cc1 (centres unmarked)", "≥ 25 nM"],
  ["Cc1nn(C)cc1-c1c(-c2ccc3c(c2)CN(C2CCC(=O)NC2=O)C3=O)cnn1C (centres unmarked)", "≥ 25 nM"],
  ["CCn1cnc(-c2ccc3c(c2)CN(C2CCC(=O)NC2=O)C3=O)c1-c1ccccc1 (centres unmarked)", "< 25 nM"],
  ["Cn1cnc(-c2ccc3c(c2)CN(C2CCC(=O)NC2=O)C3=O)c1-c1cc(Cl)cc(C#N)c1 (centres unmarked)", "< 25 nM"],
  ["Cn1cnc(-c2ccc3c(c2)CN(C2CCC(=O)NC2=O)C3=O)c1-c1cccc2c1OCC2 (centres unmarked)", "< 25 nM"],
  ["Cc1ccc(-c2c(-c3ccc4c(c3)CN(C3CCC(=O)NC3=O)C4=O)cnn2C)s1 (centres unmarked)", "≥ 25 nM"],
  ["Cn1ncc(-c2ccc3c(c2)CN(C2CCC(=O)NC2=O)C3=O)c1-c1ccncc1 (centres unmarked)", "≥ 25 nM"],
  ["Cn1cnc(-c2ccc3c(c2)CN(C2CCC(=O)NC2=O)C3=O)c1-c1cccc(C(=O)NC2CCCCC2)c1 (centres unmarked)", "≥ 25 nM"],
  ["Cn1cnc(-c2ccc3c(c2)CN(C2CCC(=O)NC2=O)C3=O)c1-c1ccc(O)cc1 (centres unmarked)", "≥ 25 nM"],
  ["Cn1ncc(-c2ccc3c(c2)CN(C2CCC(=O)NC2=O)C3=O)c1-c1ccc(-c2ccc(C#N)cc2)cc1 (centres unmarked)", "≥ 25 nM"],
  ["O=C1CCC(N2Cc3cc(-c4ncn5c4-c4ccccc4C5)ccc3C2=O)C(=O)N1 (centres unmarked)", "< 25 nM"],
  ["Cc1cc(-c2c(-c3ccc4c(c3)CN(C3CCC(=O)NC3=O)C4=O)ncn2C)n(C)n1 (centres unmarked)", "≥ 25 nM"],
  ["Cn1ncc(-c2ccc3c(c2)CN(C2CCC(=O)NC2=O)C3=O)c1-c1ccc(-c2ccncc2)cc1 (centres unmarked)", "≥ 25 nM"],
  ["COc1ccc(-c2c(-c3ccc4c(c3)CN(C3CCC(=O)NC3=O)C4=O)ncn2C)c(Cl)c1 (centres unmarked)", "< 25 nM"],
  ["Cn1cnc(-c2ccc3c(c2)CN(C2CCC(=O)NC2=O)C3=O)c1-c1ccc2ccccc2c1 (centres unmarked)", "< 25 nM"],
  ["Cn1ncc(-c2ccc3c(c2)CN(C2CCC(=O)NC2=O)C3=O)c1-c1cccc(C(N)=O)c1 (centres unmarked)", "< 25 nM"],
  ["Cn1ncc(-c2ccc3c(c2)CN(C2CCC(=O)NC2=O)C3=O)c1-c1cncnc1 (centres unmarked)", "≥ 25 nM"],
  ["Cn1ncc(-c2ccc3c(c2)CN(C2CCC(=O)NC2=O)C3=O)c1-c1cccc(F)c1Cl (centres unmarked)", "≥ 25 nM"],
  ["Cn1ncc(-c2ccc3c(c2)CN(C2CCC(=O)NC2=O)C3=O)c1-c1ccc(OCc2ccccc2)cc1 (centres unmarked)", "≥ 25 nM"]
]}
